The reported numbers originate from ChEMBL document CHEMBL1671754.

# System: Escherichia coli
# test.method.notes: Antibacterial activity against Escherichia coli JM109 harboring plasmid ptac85-vca0421
# Format: functional
Listing of entries alongside the reported MIC.
Provide only the numeric value, understood in mg/L.

C[C@@H]1CN(c2c(F)c(N)c3c(=O)c(C(=O)O)cn(C4CC4)c3c2F)C[C@H](C)N1	0.125
CCn1cc(C(=O)O)c(=O)c2cc(F)c(N3CCNCC3)cc21	1
CN(C)[C@@H]1C(O)=C(C(N)=O)C(=O)[C@@]2(O)C(O)=C3C(=O)c4c(O)cccc4[C@@](C)(O)[C@H]3C[C@@H]12	8

We next turn to a different molecule, shown below.
IN: Please report the recorded MIC for CCn1cc(C(=O)O)c(=O)c2cc(F)c(N3CCNCC3)nc21 .
OUT: 2
